# Test system: SK-MEL-28
# Procedure Details: NCI tumour cell line growth inhibition, 48 h
The source made the active and inactive calls. No stated cut-off is given here; in the data, active = GI50 up to about 1.1 µM and inactive = higher.
Recorded Endpoint: GI50

[
  {
    "Compound": "N#CC12CC3=C(N=C1NC1=C(CCc4ccccc41)C2)c1ccccc1CC3 (configuration not stated)",
    "Tgt": "SK-MEL-28",
    "Recorded Endpoint": "GI50",
    "Experimental Result": "4.06 µM (inactive)"
  },
  {
    "Compound": "CCC(/C=C/C1OC(=O)C=CC1C)=C\\C(C)C/C=C/C(C)=C/C(C)C(=O)C(C)C(O)C(C)C/C(C)=C/C(=O)O (configuration not stated)",
    "Tgt": "SK-MEL-28",
    "Recorded Endpoint": "GI50",
    "Experimental Result": "2.65 µM (inactive)"
  },
  {
    "Compound": "Nc1nc(-c2ccccc2)cc(-c2ccc(OCc3ccccc3)cc2O)n1",
    "Tgt": "SK-MEL-28",
    "Recorded Endpoint": "GI50",
    "Experimental Result": "89.9 µM (inactive)"
  },
  {
    "Compound": "CS/C(=N/S(=O)(=O)c1ccc(Cl)cc1)NCCCN/C(=N\\S(=O)(=O)c1ccc(Cl)cc1)SC",
    "Tgt": "SK-MEL-28",
    "Recorded Endpoint": "GI50",
    "Experimental Result": "25.8 µM (inactive)"
  },
  {
    "Compound": "CC(=O)O[C@H]1CC[C@@]2(C)C(=CC[C@@H]3[C@@H]2CC[C@]2(C)c4nc(N)c(C#N)cc4C[C@@H]32)C1",
    "Tgt": "SK-MEL-28",
    "Recorded Endpoint": "GI50",
    "Experimental Result": "40 µM (inactive)"
  },
  {
    "Compound": "CCn1c2ccccc2c2c(-c3ccccc3)cc3c(c21)C(=O)N(c1ccccc1)C3=O",
    "Tgt": "SK-MEL-28",
    "Recorded Endpoint": "GI50",
    "Experimental Result": "> 100 µM (inactive)"
  },
  {
    "Compound": "NC(CSS(=O)(=O)c1ccccc1)C(=O)O (configuration not stated)",
    "Tgt": "SK-MEL-28",
    "Recorded Endpoint": "GI50",
    "Experimental Result": "> 10 µM (inactive)"
  },
  {
    "Compound": "Nc1ncnc2c1ncn2CCCC(c1ccccc1)P(=O)(O)O (configuration not stated)",
    "Tgt": "SK-MEL-28",
    "Recorded Endpoint": "GI50",
    "Experimental Result": "> 100 µM (inactive)"
  },
  {
    "Compound": "COc1cc(O)c(/C=N/N=C(\\N)NO)c(OC)c1",
    "Tgt": "SK-MEL-28",
    "Recorded Endpoint": "GI50",
    "Experimental Result": "> 10 µM (inactive)"
  },
  {
    "Compound": "CO/N=C/c1c(-c2ccc(Cl)cc2)c(/C=N/OC)n2c1sc1ccccc12",
    "Tgt": "SK-MEL-28",
    "Recorded Endpoint": "GI50",
    "Experimental Result": "> 100 µM (inactive)"
  },
  {
    "Compound": "CSc1[nH]nc(N)c1C(=O)Nc1ccc(C)cc1",
    "Tgt": "SK-MEL-28",
    "Recorded Endpoint": "GI50",
    "Experimental Result": "48.8 µM (inactive)"
  },
  {
    "Compound": "O=S(=O)(N1CCCCN(S(=O)(=O)C(F)(F)F)CCCN(S(=O)(=O)C(F)(F)F)CCCN(S(=O)(=O)C(F)(F)F)CCCCN(S(=O)(=O)C(F)(F)F)CCCN(S(=O)(=O)C(F)(F)F)CCC1)C(F)(F)F",
    "Tgt": "SK-MEL-28",
    "Recorded Endpoint": "GI50",
    "Experimental Result": "> 100 µM (inactive)"
  },
  {
    "Compound": "O=C(/N=S(/NC(=O)c1ccccc1)C(Cl)(Cl)Cl)c1ccccc1 (configuration not stated)",
    "Tgt": "SK-MEL-28",
    "Recorded Endpoint": "GI50",
    "Experimental Result": "25.3 µM (inactive)"
  },
  {
    "Compound": "CCSc1nn(-c2c3ccccc3nc3ccccc23)c(=S)s1",
    "Tgt": "SK-MEL-28",
    "Recorded Endpoint": "GI50",
    "Experimental Result": "> 100 µM (inactive)"
  },
  {
    "Compound": "O=[N+]([O-])c1cccc(C2=NN(c3ccccc3)C3c4ccccc4OCC23)c1 (configuration not stated)",
    "Tgt": "SK-MEL-28",
    "Recorded Endpoint": "GI50",
    "Experimental Result": "> 100 µM (inactive)"
  },
  {
    "Compound": "O=C1c2ccccc2N2OC3(N4CCCC4)CCCCC3C12c1ccccc1 (configuration not stated)",
    "Tgt": "SK-MEL-28",
    "Recorded Endpoint": "GI50",
    "Experimental Result": "25.4 µM (inactive)"
  },
  {
    "Compound": "COc1cc(O)c(C(=O)/C=C/c2ccc(O)cc2)cc1Oc1ccc(/C=C/C(=O)c2ccc(O)cc2O)cc1",
    "Tgt": "SK-MEL-28",
    "Recorded Endpoint": "GI50",
    "Experimental Result": "8.41 µM (inactive)"
  }
]
